# RUN DESCRIPTION: Cytotoxicity test (MTT), HT-29
# Format: cell-based
# TEST CONDITIONS: human, HT-29 cells (colorectal cancer cell line); HT-29, 48 h, 0.1 μM; read-out: Cell viability (% of control)
So basically: is viability at 48 h, 0.1 µM under 80%? Then true (1). Not under? Then false (0).

Query string: For this compound, is viability at 48 h, 0.1 µM lower than 80%? Cc1nc(NC(=O)OCC(C)C)c(C)c(C)c1O
Result string: false (0)

Query string: For this compound, is viability at 48 h, 0.1 µM lower than 80%? Cc1nc(NC(=O)Nc2ccccc2)c(C)c(C)c1O
Result string: false (0)

Query string: For this compound, is viability at 48 h, 0.1 µM lower than 80%? Cc1nc(NS(C)(=O)=O)c(C)c(C)c1O
Result string: true (1)

Query string: For this compound, is viability at 48 h, 0.1 µM lower than 80%? O=c1[nH]cc(F)c(=O)[nH]1 [5-Fluorouracil, reference compound]
Result string: true (1)

Query string: For this compound, is viability at 48 h, 0.1 µM lower than 80%? Cc1nc(NC(=O)Nc2cccc3ccccc23)c(C)c(C)c1O
Result string: false (0)

Query string: For this compound, is viability at 48 h, 0.1 µM lower than 80%? Cc1nc(NC(=S)NC(C)C)c(C)c(C)c1O
Result string: false (0)

Query string: For this compound, is viability at 48 h, 0.1 µM lower than 80%? Cc1nc(NS(=O)(=O)c2ccc([N+](=O)[O-])cc2)c(C)c(C)c1O
Result string: false (0)

Query string: For this compound, is viability at 48 h, 0.1 µM lower than 80%? CCCCNC(=S)Nc1nc(C)c(O)c(C)c1C
Result string: false (0)

Query string: For this compound, is viability at 48 h, 0.1 µM lower than 80%? CCCNC(=O)Nc1nc(C)c(O)c(C)c1C
Result string: false (0)

* * *

# RUN DESCRIPTION: Cytotoxicity test (MTT), HT-29
# Type: cell-based
# TEST CONDITIONS: human, HT-29 cells (colorectal cancer cell line); HT-29, 48 h, 10 μM; read-out: Cell viability (% of control)
# Experimental: The human colorectal cancer cell line HT-29 and the monocytic blood cancer-derived cell line U937 were cultured in a RPMI 1640 medium containing 10% FBS and 1% penicillin/streptomycin (PS) at 37° C. under a condition of 5% CO2, and when the cells used herein were grown to 80% or more, they were subcultured at a ratio of 1:3. […]
So basically: is viability at 48 h, 10 µM under 70%? Then satisfied. Not under? Then not satisfied.

Query string: For this molecule, is viability at 48 h, 10 µM lower than 70%? Cc1nc(NC(=O)NS(=O)(=O)c2ccccc2)c(C)c(C)c1O
Result string: not satisfied

Query string: For this molecule, is viability at 48 h, 10 µM lower than 70%? Cc1nc(NC(=S)NC(=O)c2ccccc2)c(C)c(C)c1O
Result string: satisfied

Query string: For this molecule, is viability at 48 h, 10 µM lower than 70%? Cc1nc(NC(=S)Nc2ccccc2)c(C)c(C)c1O
Result string: not satisfied

For the next question, use this molecule.
Query string: For this molecule, is viability at 48 h, 10 µM lower than 70%? Cc1nc(NS(C)(=O)=O)c(C)c(C)c1O
Result string: satisfied
